Exercise: state measured remaining activity at 625 µM for each of the molecules provided.
Target: Mtb PanD (Mycobacterium tuberculosis)
Construct: The active protein consists of a β chain (Met1-Gly24) and an α chain (Pyr25 to ILE115); we observed the processed active enzyme after cleavage between Gly24 and Ser25; inferred from the pET21c(+) vector and HisTrap purification); made in house; host or cells: Escherichia coli BL21(DE3)
Assay: biochemical
Assay type: biochemical
Settings: compound conc 0.625 mM; read-out: Fractional Activity
One number for each entry, in %.

Previously resolved entries follow.
>>> print(df.to_string())
                             molecule  recorded_value
0                      O=C(O)c1cnccn1            66.4
1  NC(=O)c1cnccn1 [PZA, pyrazinamide]             105
2                  O=C(O)c1cncc(Cl)n1            69.3

Looking up O=C(O)c1cnc(Cl)cn1 , I see its remaining activity at 625 µM listed as 89.8

----------
Biological target: Mtb PanD (Mycobacterium tuberculosis, UniProt P9WIL3)
Construct: The active protein consists of a β chain (Met1-Gly24) and an α chain (Pyr25 to ILE115); we observed the processed active enzyme after cleavage between Gly24 and Ser25; inferred from the pET21c(+) vector and HisTrap purification); made in house; host or cells: Escherichia coli BL21(DE3)
Sequence (P9WIL3 1-24): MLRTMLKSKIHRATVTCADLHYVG
Sequence (P9WIL3 25-139): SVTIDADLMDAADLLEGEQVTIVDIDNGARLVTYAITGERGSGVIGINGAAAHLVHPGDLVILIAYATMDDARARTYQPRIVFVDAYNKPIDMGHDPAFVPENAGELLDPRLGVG
Experiment: biochemical
Type: biochemical
Conditions: compound conc 10 mM; read-out: Fractional Activity
observable: remaining activity at 10000 µM (%)
Give bare numbers, in %.

Previously resolved entries follow.
In [3]: df
Out[3]:
                             molecule                      observable  recorded_value
0                      O=C(O)c1cnccn1  remaining activity at 10000 µM            13.4
1  NC(=O)c1cnccn1 [PZA, pyrazinamide]  remaining activity at 10000 µM            98.7
2                  O=C(O)c1cnc(Cl)cn1  remaining activity at 10000 µM            51.6

Looking up O=C(O)c1cncc(Cl)n1 , I see its remaining activity at 10000 µM listed as 19.8

----------
Target: Mtb PanD (Mycobacterium tuberculosis)
Construct: The active protein consists of a β chain (Met1-Gly24) and an α chain (Pyr25 to ILE115); we observed the processed active enzyme after cleavage between Gly24 and Ser25; inferred from the pET21c(+) vector and HisTrap purification); made in house; host or cells: Escherichia coli BL21(DE3)
Assay: biochemical
Assay type: biochemical
Conditions: compound conc 1.25 mM; read-out: Fractional Activity
observable: remaining activity at 1250 µM (%)
Numbers only, in %.

Previously resolved entries follow.
                                   compound                           study_system                     observable  recorded_value
0     O=C(O)c1cnccn1 [POA, pyrazinoic acid]  Mtb PanD (Mycobacterium tuberculosis)  remaining activity at 1250 µM            52.9
1  O=C(O)c1cncc(Cl)n1 [6-Cl-POA, 6-chloropyrazinoic acid]  Mtb PanD (Mycobacterium tuberculosis)  remaining activity at 1250 µM            51.7

Would you mind listing remaining activity at 1250 µM for each of the following compounds?
1. NC(=O)c1cnccn1 [PZA, pyrazinamide]
2. O=C(O)c1cnc(Cl)cn1 [5-Cl-POA]

101
80.2

----------
Target: Mtb PanD (Mycobacterium tuberculosis)
Construct: The active protein consists of a β chain (Met1-Gly24) and an α chain (Pyr25 to ILE115); we observed the processed active enzyme after cleavage between Gly24 and Ser25; inferred from the pET21c(+) vector and HisTrap purification); made in house; host or cells: Escherichia coli BL21(DE3)
Assay: biochemical
Format: biochemical
Settings: compound conc 20 mM; read-out: Fractional Activity
observable: remaining activity at 20000 µM (%)
Give bare numbers, in %.

Previously resolved entries follow.
             compound                           study_system  unit_annotation  recorded_value
0      O=C(O)c1cnccn1  Mtb PanD (Mycobacterium tuberculosis)                %            7.44
1  O=C(O)c1cncc(Cl)n1  Mtb PanD (Mycobacterium tuberculosis)                %            8.91
2  O=C(O)c1cnc(Cl)cn1  Mtb PanD (Mycobacterium tuberculosis)                %            44.3

In the following, a different compound is considered.
Entry NC(=O)c1cnccn1 [PZA, pyrazinamide] , Mtb PanD (Mycobacterium tuberculosis) data, remaining activity at 20000 µM value: 91.5
